- TARGET: AHR (Homo sapiens, UniProt P35869)
- Sequence (P35869 11-848): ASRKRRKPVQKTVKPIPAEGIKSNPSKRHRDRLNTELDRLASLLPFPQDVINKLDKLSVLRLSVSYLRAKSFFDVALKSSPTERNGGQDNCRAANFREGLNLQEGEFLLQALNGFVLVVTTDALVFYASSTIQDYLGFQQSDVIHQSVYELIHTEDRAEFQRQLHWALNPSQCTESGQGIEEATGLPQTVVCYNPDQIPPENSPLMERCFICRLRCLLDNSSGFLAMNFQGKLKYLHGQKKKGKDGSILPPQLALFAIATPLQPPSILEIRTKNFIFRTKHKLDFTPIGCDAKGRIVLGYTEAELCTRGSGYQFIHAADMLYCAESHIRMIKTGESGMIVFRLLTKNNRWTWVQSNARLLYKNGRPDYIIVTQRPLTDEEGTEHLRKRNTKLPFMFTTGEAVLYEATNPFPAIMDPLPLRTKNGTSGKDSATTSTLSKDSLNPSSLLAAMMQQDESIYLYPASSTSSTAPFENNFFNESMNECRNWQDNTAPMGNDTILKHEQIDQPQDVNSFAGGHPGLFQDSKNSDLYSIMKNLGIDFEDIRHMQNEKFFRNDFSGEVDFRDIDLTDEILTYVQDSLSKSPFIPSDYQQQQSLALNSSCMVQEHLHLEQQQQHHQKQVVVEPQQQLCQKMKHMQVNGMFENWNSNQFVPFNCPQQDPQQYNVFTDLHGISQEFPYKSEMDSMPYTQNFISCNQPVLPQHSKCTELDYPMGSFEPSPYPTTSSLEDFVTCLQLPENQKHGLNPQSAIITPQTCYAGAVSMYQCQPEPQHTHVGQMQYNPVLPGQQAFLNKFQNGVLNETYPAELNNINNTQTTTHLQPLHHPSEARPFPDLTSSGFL
- ASSAY NAME: In vitro assay 1: antagonism in human cell line (transactivation assay, kynurenic acid prestimulated)
- RECORDED CONDITIONS: Assay 1: AHR-luc Hum Antagonism IC50 [M], 150 μM kynurenic acid, 20 hours, firefly luciferase
IC50 by entry:
Lab note: write values as number then unit, every time.

Here are 5 molecules together with their reported answers.
Q: Tell me measured IC50 for O=C(NCC(O)C1CC1)c1cc(-c2ccc(Cl)cc2)nn(-c2cccc(F)c2)c1=O (single isomer, unassigned; (+)) [Example 192] please.
A: 1.97e-07 M

Q: Tell me measured IC50 for C[C@H](NC(=O)c1cc(-c2ccc(Cl)cc2)nn(-c2cccc(F)c2)c1=O)C(C)(C)O please.
A: 2.6e-08 M

Q: Tell me measured IC50 for O=C(NC(CO)C1CC1)c1cc(-c2ccc(Cl)cc2)nn(-c2cccc(F)c2)c1=O (single isomer, unassigned; (-)) [Example 194] please.
A: 1.21e-08 M

Q: Tell me measured IC50 for CC(C)C(O)CNC(=O)c1cc(-c2ccc(Cl)cc2)nn(-c2cccc(Cl)c2)c1=O (centres unmarked) [Example 67] please.
A: 3.89e-07 M

Q: Tell me measured IC50 for Cc1cccc(-n2nc(-c3ccc(Cl)cc3)cc(C(=O)N[C@H](CO)C(C)C)c2=O)c1 please.
A: 4.18e-07 M

New cases:
Q: Tell me measured IC50 for Cc1ccc(-c2cc(C(=O)NCCO)c(=O)n(-c3cccc(F)c3)n2)cc1 please.
A: 3.91e-07 M

Q: Tell me measured IC50 for CC(O)C(C)NC(=O)c1cc(-c2ccc(OC(F)F)cc2)nn(-c2cccc(F)c2)c1=O (single isomer, unassigned) [Example 142] please.
A: 9.15e-07 M

Q: Tell me measured IC50 for C[C@@H](CO)NC(=O)c1cc(-c2ccc(N3CCOCC3)cc2)nn(-c2cccc(F)c2)c1=O please.
A: 2.65e-08 M

Reference for the values: patent US11040035B2
